Measured values drawn from patent US8871753B2 for this set.

Would you kindly list pIC50 for each of these molecules?
target: human JAK1 (a.a. 837-1142) (Homo sapiens); construct: human JAK1 (a.a. 837-1142); His tag (N); made in house; host or cells: insect cells (baculovirus); assay: In vitro JAK kinase assay (HTRF, phosphorylation of a biotinylated peptide), JAK1; format: biochemical; conditions: method AA1 (90 μM ATP) or AA2 (1000 μM ATP), not stated per value; read-out: JAK1 IC50
Sequence (P23458 849-1154): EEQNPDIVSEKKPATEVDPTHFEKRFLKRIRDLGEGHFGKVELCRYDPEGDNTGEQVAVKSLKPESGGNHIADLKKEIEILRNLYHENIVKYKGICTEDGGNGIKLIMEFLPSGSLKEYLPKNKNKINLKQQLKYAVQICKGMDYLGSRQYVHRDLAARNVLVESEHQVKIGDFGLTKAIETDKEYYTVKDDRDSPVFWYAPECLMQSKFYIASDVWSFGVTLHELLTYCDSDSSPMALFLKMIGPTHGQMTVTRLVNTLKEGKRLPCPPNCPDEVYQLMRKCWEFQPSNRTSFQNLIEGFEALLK
Counter-ions that a name gives are not always drawn.
Remember, pIC50 is on a log scale: it is -log10 of the molar concentration.

pIC50 lookup needed for O=C(CC1CCN(C(=O)NCc2ccccc2)CC1)Nc1ccc2cc1CCc1cncc(c1)Nc1ncc(Cl)c(n1)N2 [Example A155, bis(trifluoroacetate)] , thanks. 8.62

pIC50 lookup needed for Cc1cc(C(=O)N2CCN(CC(=O)Nc3ccc4cc3CCc3cncc(c3)Nc3ncc(Cl)c(n3)N4)CC2)no1 [Example A119, tris(trifluoroacetate)] , thanks. 8.44

pIC50 lookup needed for N#Cc1ccc(C(=O)N2CCC(C(=O)Nc3ccc4cc3CCc3cccc(c3)Nc3ncc(Cl)c(n3)N4)CC2)cc1 [Example A33, trifluoroacetate] , thanks. 7.52

pIC50 lookup needed for COc1cc(C(=O)N2CCC(CC(=O)Nc3ccc4cc3CCc3cncc(c3)Nc3ncc(Cl)c(n3)N4)CC2)on1 [Example A215, bis(trifluoroacetate)] , thanks. 7.80

pIC50 lookup needed for N#Cc1ccccc1S(=O)(=O)N1CCC(CC(=O)Nc2ccc3cc2CCc2cccc(c2)Nc2ncc(Cl)c(n2)N3)CC1 [Example A208, trifluoroacetate] , thanks. 8.80

pIC50 lookup needed for N#Cc1ccc(NC(=O)N2CCC(C(=O)Nc3ccc4cc3CCc3cccc(c3)Nc3ncc(Cl)c(n3)N4)CC2)cc1 [Example A37, trifluoroacetate] , thanks. 8.05

###

Would you kindly list IC50 for each of these molecules?
molecular target: TYK2 (Homo sapiens); assay: TYK2 kinase inhibition (Table A1); assay type: biochemical
Sequence (P29597 whole entry): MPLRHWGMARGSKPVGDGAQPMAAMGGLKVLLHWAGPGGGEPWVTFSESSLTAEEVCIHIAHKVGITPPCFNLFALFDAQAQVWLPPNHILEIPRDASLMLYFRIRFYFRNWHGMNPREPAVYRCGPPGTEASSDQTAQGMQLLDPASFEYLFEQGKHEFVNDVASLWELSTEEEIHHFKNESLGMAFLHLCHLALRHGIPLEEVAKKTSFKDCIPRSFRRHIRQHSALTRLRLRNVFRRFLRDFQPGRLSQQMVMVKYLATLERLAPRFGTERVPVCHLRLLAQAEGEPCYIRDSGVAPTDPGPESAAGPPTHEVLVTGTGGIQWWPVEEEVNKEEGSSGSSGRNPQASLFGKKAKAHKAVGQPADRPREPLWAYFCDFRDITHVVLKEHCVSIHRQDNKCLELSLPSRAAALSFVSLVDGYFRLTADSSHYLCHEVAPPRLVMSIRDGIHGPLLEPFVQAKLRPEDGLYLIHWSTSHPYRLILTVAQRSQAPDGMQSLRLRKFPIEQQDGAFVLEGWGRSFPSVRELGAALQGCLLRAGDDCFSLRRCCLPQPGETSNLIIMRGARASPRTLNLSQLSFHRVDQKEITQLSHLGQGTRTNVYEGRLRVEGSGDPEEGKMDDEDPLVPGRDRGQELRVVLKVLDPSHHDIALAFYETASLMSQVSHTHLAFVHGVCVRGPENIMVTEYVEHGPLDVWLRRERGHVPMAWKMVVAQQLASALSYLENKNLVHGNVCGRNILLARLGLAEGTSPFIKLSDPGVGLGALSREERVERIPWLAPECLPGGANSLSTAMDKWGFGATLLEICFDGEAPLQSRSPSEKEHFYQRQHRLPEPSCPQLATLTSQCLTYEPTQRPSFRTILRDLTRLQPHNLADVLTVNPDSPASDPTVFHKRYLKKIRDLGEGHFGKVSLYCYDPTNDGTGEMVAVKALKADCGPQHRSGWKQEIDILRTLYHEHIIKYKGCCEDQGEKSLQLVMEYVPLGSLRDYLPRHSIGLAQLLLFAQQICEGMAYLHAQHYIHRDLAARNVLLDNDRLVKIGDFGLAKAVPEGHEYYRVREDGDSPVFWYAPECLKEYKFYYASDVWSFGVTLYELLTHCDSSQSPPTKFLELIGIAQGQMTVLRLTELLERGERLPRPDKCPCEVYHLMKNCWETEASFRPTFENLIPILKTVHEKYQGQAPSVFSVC
Structures can show the parent of a compound that is named as a salt.
The answer is to be given in nM; state only the numeric part.

Give the reported IC50 for N#Cc1cccc(NC(=O)N2CCC(CC(=O)Nc3ccc4cc3CCc3cncc(c3)Nc3ncc(Cl)c(n3)N4)CC2)c1 [Example A142, bis(trifluoroacetate)] (system: TYK2 (Homo sapiens)). 6.5

Give the reported IC50 for N#Cc1ccc(NC(=O)N2CCC(CC(=O)Nc3ccc4cc3CCc3cncc(c3)Nc3ncc(Cl)c(n3)N4)CC2)cc1 [Example A143, bis(trifluoroacetate)] (system: TYK2 (Homo sapiens)). 1.2

Give the reported IC50 for O=C(CC1CCN(S(=O)(=O)c2cccnc2)CC1)Nc1ccc2cc1CCc1cccc(c1)Nc1ncc(Cl)c(n1)N2 [Example A212, bis(trifluoroacetate)] (system: TYK2 (Homo sapiens)). 85

Give the reported IC50 for CCC(=O)N1CCC(CC(=O)Nc2ccc3cc2CCc2cncc(c2)Nc2ncc(Cl)c(n2)N3)CC1 [Example A104, bis(trifluoroacetate)] (system: TYK2 (Homo sapiens)). 4.4

Give the reported IC50 for O=C(COc1ccc2cc1CCc1cccc(c1)Nc1ncc(Cl)c(n1)N2)N1CCN(C(=O)Nc2ccccc2)CC1 [Example A13, trifluoroacetate] (system: TYK2 (Homo sapiens)). 42

Give the reported IC50 for Cc1cc(C(=O)N2CCC(CC(=O)Nc3ccc4cc3CCc3cncc(c3)Nc3ncc(F)c(n3)N4)CC2)no1 [Example C49, trifluoroacetate] (system: TYK2 (Homo sapiens)). 326

Give the reported IC50 for CC(=O)N1CC[C@@H](C(=O)Nc2ccc3cc2CCc2cccc(c2)Nc2ncc(Cl)c(n2)N3)C1 [Example A51, trifluoroacetate] (system: TYK2 (Homo sapiens)). 21

Give the reported IC50 for O=C(Cc1cccnc1)Nc1ccc2cc1CCc1cccc(c1)Nc1ncc(Cl)c(n1)N2 [Example C39, bis(trifluoroacetate)] (system: TYK2 (Homo sapiens)). 195

Give the reported IC50 for Cc1cc(C(=O)N2CCN(CC(=O)Nc3ccc4cc3CCc3cncc(c3)Nc3ncc(Cl)c(n3)N4)CC2)no1 [Example A119, tris(trifluoroacetate)] (system: TYK2 (Homo sapiens)). 8.6

Give the reported IC50 for Cc1noc(C)c1C(=O)N1CCC(CC(=O)Nc2ccc3cc2CCc2cncc(c2)Nc2ncc(Cl)c(n2)N3)CC1 [Example A156, bis(trifluoroacetate)] (system: TYK2 (Homo sapiens)). 2500

###

target: human JAK1 (a.a. 837-1142) (Homo sapiens); construct: human JAK1 (a.a. 837-1142); His tag (N); made in house; host or cells: insect cells (baculovirus); assay: In vitro JAK kinase assay (HTRF, phosphorylation of a biotinylated peptide), JAK1; format: biochemical; conditions: Table B1; read-out: JAK1 IC50
Counter-ions that a name gives are not always drawn.
readout: log10 IC50 (log10 of the value in nM)
Log scale reminder: IC50 in nM, then log10 taken.

log10 IC50 lookup needed for CC(C)(C)OC(=O)N1CC[C@@H](NCc2ccc3cc2CCc2cccc(c2)Nc2ncc(Cl)c(n2)N3)C1 [Example B219, bis(trifluoroacetate)] , thanks. 0.82

log10 IC50 lookup needed for NS(=O)(=O)N1CC[C@@H](NC(=O)Nc2ccc3cc2CCc2cccc(c2)Nc2ncc(Cl)c(n2)N3)C1 [Example B179, trifluoroacetate] , thanks. -0.64

log10 IC50 lookup needed for N#Cc1cccc(NC(=O)Nc2ccc3cc2CCc2cccc(c2)Nc2ncc(Cl)c(n2)N3)c1 [Example B95, trifluoroacetate] , thanks. 0.32

log10 IC50 lookup needed for CN1CCN(C(=O)c2cc3cc(c2)Nc2nc(ncc2Cl)Nc2cccc(c2)CC3)CC1 [Example B8, trifluoroacetate] , thanks. 2.70

log10 IC50 lookup needed for O=C(Nc1ccccc1Cl)c1cc2cc(c1)Nc1nc(ncc1Cl)Nc1cccc(c1)CC2 [Example B14, trifluoroacetate] , thanks. 2.37

log10 IC50 lookup needed for CCS(=O)(=O)NCCNC(=O)Nc1ccc2cc1CCc1cccc(c1)Nc1ncc(Cl)c(n1)N2 [Example B325, trifluoroacetate] , thanks. 0.30

log10 IC50 lookup needed for O=C(Nc1ccc2cc1CCc1cccc(c1)Nc1ncc(Cl)c(n1)N2)Nc1c(Cl)cccc1Cl [Example B113, trifluoroacetate] , thanks. 0.67

log10 IC50 lookup needed for CC1(C)Cc2cccc(NC(=O)Nc3ccc4cc3CCc3cccc(c3)Nc3ncc(Cl)c(n3)N4)c2O1 [Example B129, trifluoroacetate] , thanks. 0.57

log10 IC50 lookup needed for O=C(NCCNS(=O)(=O)C1CC1)Nc1ccc2cc1CCc1cccc(c1)Nc1ncc(Cl)c(n1)N2 [Example B327, trifluoroacetate] , thanks. 0.30

log10 IC50 lookup needed for N#Cc1ccccc1S(=O)(=O)Nc1ccc2cc1CCc1cccc(c1)Nc1ncc(Cl)c(n1)N2 [Example B155, trifluoroacetate] , thanks. 0.11

log10 IC50 lookup needed for CS(=O)(=O)N1CCC(NC(=O)Nc2ccc3cc2CCc2cccc(c2)Nc2ncc(Cl)c(n2)N3)CC1 [Example B182, trifluoroacetate] , thanks. 0.08

log10 IC50 lookup needed for O=C(Nc1ccccc1)Nc1ccc2cc1CCc1cccc(c1)Nc1ncc(Cl)c(n1)N2 [Example B83, trifluoroacetate] , thanks. -0.25

log10 IC50 lookup needed for O=C(Nc1ccc2cc1CCc1cncc(c1)Nc1ncc(Cl)c(n1)N2)N1CCN(Cc2ccccc2)CC1 [Example B287] , thanks. 1.18

log10 IC50 lookup needed for O=C(Nc1cc2cc(c1)Nc1nc(ncc1Cl)Nc1cccc(c1)CC2)c1ccccn1 [Example B201, trifluoroacetate] , thanks. 2.08

log10 IC50 lookup needed for CC(C)(C)NS(=O)(=O)c1cc2cc(c1)Nc1nc(ncc1Cl)Nc1cccc(c1)CC2 [Example B16, trifluoroacetate] , thanks. 1.72

log10 IC50 lookup needed for O=C(NCCNS(=O)(=O)c1ccc(Cl)s1)Nc1ccc2cc1CCc1cccc(c1)Nc1ncc(Cl)c(n1)N2 [Example B330, trifluoroacetate] , thanks. 0.60

log10 IC50 lookup needed for N#Cc1ccc(NC(=O)Nc2cc3cc(c2)Nc2nc(ncc2Cl)Nc2cccc(c2)CC3)cc1 [Example B212, trifluoroacetate] , thanks. 2.60

log10 IC50 lookup needed for CN(C(=O)Nc1ccc2cc1CCc1cccc(c1)Nc1ncc(Cl)c(n1)N2)[C@H]1CCN(Cc2ccccc2)C1 [Example B283] , thanks. 2.15

log10 IC50 lookup needed for O=C(Nc1ccc2cc1CCc1cccc(c1)Nc1ncc(Cl)c(n1)N2)C1CCC1 [Example B57, hydrochloride] , thanks. 1.08

log10 IC50 lookup needed for CC(C)(C)OC(=O)N1CCN(CCNC(=O)Nc2ccc3cc2CCc2cccc(c2)Nc2ncc(Cl)c(n2)N3)CC1 [Example B259] , thanks. 0.58

log10 IC50 lookup needed for O=C(Nc1ccc2cc1CCc1cccc(c1)Nc1ncc(Cl)c(n1)N2)N[C@H]1CCN(C(=O)c2ccccn2)C1 [Example B233, bis(trifluoroacetate)] , thanks. 0.85

log10 IC50 lookup needed for CN(Cc1ccc2cc1CCc1cncc(c1)Nc1ncc(Cl)c(n1)N2)CC1CCN(C(=O)Nc2cccnc2)CC1 [Example B348, (trifluoroacetate)] , thanks. 0.53

log10 IC50 lookup needed for Cc1oncc1C(=O)N1CCC(NC(=O)Nc2ccc3cc2CCc2cccc(c2)Nc2ncc(Cl)c(n2)N3)CC1 [Example B264, trifluoroacetate] , thanks. 1.15

log10 IC50 lookup needed for Cc1cncc(N2CCN(C(=O)Nc3ccc4cc3CCc3cncc(c3)Nc3ncc(Cl)c(n3)N4)CC2)n1 [Example B308, tris(trifluoroacetate)] , thanks. 1.20

log10 IC50 lookup needed for Cn1cncc1C(=O)Nc1cc2cc(c1)Nc1nc(ncc1Cl)Nc1cccc(c1)CC2 [Example B208, trifluoroacetate] , thanks. 2.32

log10 IC50 lookup needed for O=C(Nc1nc(C(=O)O)cs1)Nc1ccc2cc1CCc1cccc(c1)Nc1ncc(Cl)c(n1)N2 [Example B250, trifluoroacetate] , thanks. 1.45
